Taken from the kinase profiling compilation of Christmann-Franck et al. (2016).

tested-system: TSSK1B (human) (UniProt Q9BXA7)
Sequence (Q9BXA7 whole entry, looked up): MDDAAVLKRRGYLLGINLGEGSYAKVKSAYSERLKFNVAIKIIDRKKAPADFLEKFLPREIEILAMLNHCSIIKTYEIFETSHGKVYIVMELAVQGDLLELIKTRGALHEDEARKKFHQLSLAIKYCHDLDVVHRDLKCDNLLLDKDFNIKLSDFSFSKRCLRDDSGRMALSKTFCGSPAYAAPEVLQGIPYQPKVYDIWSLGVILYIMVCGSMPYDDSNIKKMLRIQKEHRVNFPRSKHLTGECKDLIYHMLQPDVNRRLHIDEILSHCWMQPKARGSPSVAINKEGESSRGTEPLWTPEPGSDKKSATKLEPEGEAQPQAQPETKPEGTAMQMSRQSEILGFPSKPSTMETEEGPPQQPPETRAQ
experimental-protocol: Caliper, Mobility shift assay off-chip
measurement-context: compound 0.02 µM
measured-quantity: inhibition (%)

1) CNC(=O)c1ccccc1Sc1ccc2c(/C=C/c3ccccn3)n[nH]c2c1 -3.6

P. CNC(=O)c1cc(Oc2ccc(NC(=O)Nc3ccc(Cl)c(C(F)(F)F)c3)cc2)ccn1
Q. Cc1ccc(Nc2nccc(N(C)c3ccc4c(C)n(C)nc4c3)n2)cc1S(N)(=O)=O
Input pair: P , Q . Output: entry with lower inhibition. I would appreciate it if you answered with the label of your choice. P

---

tested-system: CLK2 (human) (UniProt P49760)
Sequence (P49760 whole entry, looked up): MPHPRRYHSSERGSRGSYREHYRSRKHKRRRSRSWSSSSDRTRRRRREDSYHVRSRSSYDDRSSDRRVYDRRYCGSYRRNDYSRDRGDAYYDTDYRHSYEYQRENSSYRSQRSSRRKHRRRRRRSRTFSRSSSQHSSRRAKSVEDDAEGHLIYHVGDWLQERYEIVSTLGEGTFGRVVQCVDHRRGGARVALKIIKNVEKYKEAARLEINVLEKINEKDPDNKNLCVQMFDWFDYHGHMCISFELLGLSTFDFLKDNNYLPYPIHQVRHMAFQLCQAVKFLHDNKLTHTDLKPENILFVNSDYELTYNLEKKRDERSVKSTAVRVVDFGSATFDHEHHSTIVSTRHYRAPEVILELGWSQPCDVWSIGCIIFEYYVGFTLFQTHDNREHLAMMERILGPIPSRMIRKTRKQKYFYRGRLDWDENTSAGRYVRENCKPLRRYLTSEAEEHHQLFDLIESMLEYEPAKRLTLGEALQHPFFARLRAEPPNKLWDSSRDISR
experimental-protocol: Caliper, Mobility shift assay off-chip
measurement-context: compound 0.02 µM
measured-quantity: inhibition (%)

1) Cc1ccc(Nc2nccc(N(C)c3ccc4c(C)n(C)nc4c3)n2)cc1S(N)(=O)=O 6.2

a. CNC(=O)c1ccccc1Sc1ccc2c(/C=C/c3ccccn3)n[nH]c2c1
b. CNC(=O)c1cc(Oc2ccc(NC(=O)Nc3ccc(Cl)c(C(F)(F)F)c3)cc2)ccn1
c. COc1cc2c(Oc3ccc4[nH]c(C)cc4c3F)ncnc2cc1OCCCN1CCCC1
Write the entries in order, lowest recorded inhibition first. Could you list the labels in the order requested? b, c, a
(b: -0.7%, c: 0.3%, a: 5.8%)

---

tested-system: MUSK (human) (UniProt O15146)
Sequence (O15146 whole entry, looked up): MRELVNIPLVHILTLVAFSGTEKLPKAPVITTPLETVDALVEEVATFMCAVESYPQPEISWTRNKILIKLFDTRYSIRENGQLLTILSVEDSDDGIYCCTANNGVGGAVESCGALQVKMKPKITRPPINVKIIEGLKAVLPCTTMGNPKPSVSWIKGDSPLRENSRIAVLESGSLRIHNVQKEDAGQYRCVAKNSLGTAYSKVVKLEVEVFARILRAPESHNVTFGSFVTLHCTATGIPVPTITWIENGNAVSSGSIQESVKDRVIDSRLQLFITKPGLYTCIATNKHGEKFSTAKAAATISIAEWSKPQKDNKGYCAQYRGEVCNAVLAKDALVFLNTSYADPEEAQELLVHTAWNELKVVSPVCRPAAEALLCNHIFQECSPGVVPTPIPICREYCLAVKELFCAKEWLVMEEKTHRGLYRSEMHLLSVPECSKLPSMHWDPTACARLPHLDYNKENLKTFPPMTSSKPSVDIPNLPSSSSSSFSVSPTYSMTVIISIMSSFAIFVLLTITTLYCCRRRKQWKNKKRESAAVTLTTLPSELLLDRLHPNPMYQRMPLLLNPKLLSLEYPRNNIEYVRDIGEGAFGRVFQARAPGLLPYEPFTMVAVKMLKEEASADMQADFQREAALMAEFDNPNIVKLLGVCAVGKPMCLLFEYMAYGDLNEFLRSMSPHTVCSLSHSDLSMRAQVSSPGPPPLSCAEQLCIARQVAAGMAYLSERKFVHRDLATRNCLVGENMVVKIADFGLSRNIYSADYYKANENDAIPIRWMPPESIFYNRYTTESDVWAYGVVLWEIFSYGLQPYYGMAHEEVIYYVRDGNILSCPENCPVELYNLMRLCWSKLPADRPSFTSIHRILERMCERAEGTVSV
experimental-protocol: Caliper, Mobility shift assay off-chip
measurement-context: compound 0.2 µM
measured-quantity: inhibition (%)

Worked set:
1. COc1cc2c(Oc3ccc4[nH]c(C)cc4c3F)ncnc2cc1OCCCN1CCCC1 -1.6
2. CNC(=O)c1cc(Oc2ccc(NC(=O)Nc3ccc(Cl)c(C(F)(F)F)c3)cc2)ccn1 73.9

A. CCN(CC)CCNC(=O)c1c(C)[nH]c(/C=C2\C(=O)Nc3ccc(F)cc32)c1C
B. Cc1ccc(Nc2nccc(N(C)c3ccc4c(C)n(C)nc4c3)n2)cc1S(N)(=O)=O
Input pair: A , B . Output: entry with lower inhibition. I would appreciate it if you answered with the label of your choice. B
(B: 0.7%, A: 94.8%)

---

tested-system: PKN1 (human)
experimental-protocol: IMAP-FP
measurement-context: compound 0.2 µM
measured-quantity: inhibition (%)

1) COc1cc2c(Oc3ccc4[nH]c(C)cc4c3F)ncnc2cc1OCCCN1CCCC1 -32.5
2) Cc1ccc(Nc2nccc(N(C)c3ccc4c(C)n(C)nc4c3)n2)cc1S(N)(=O)=O -27.6

P. CCN(CC)CCNC(=O)c1c(C)[nH]c(/C=C2\C(=O)Nc3ccc(F)cc32)c1C
Q. CNC(=O)c1cc(Oc2ccc(NC(=O)Nc3ccc(Cl)c(C(F)(F)F)c3)cc2)ccn1
Input pair: P , Q . Output: entry with lower inhibition. I would appreciate it if you answered with the label of your choice. Q

---

tested-system: EPHA3 (human)
experimental-protocol: Caliper, Mobility shift assay off-chip
measurement-context: compound 0.02 µM
measured-quantity: inhibition (%)

1. Cc1ccc(Nc2nccc(N(C)c3ccc4c(C)n(C)nc4c3)n2)cc1S(N)(=O)=O -4.8

P. CNC(=O)c1ccccc1Sc1ccc2c(/C=C/c3ccccn3)n[nH]c2c1
Q. COc1cc2c(Oc3ccc4[nH]c(C)cc4c3F)ncnc2cc1OCCCN1CCCC1
R. CNC(=O)c1cc(Oc2ccc(NC(=O)Nc3ccc(Cl)c(C(F)(F)F)c3)cc2)ccn1
// sort entries: inhibition, high to low Could you list the labels in the order requested? R, P, Q
(R: -2.6%, P: -4.2%, Q: -6.9%)
